Measured target: Tyrosine-protein phosphatase non-receptor type 1 (Rattus norvegicus) (UniProt P20417)
Sequence (whole entry): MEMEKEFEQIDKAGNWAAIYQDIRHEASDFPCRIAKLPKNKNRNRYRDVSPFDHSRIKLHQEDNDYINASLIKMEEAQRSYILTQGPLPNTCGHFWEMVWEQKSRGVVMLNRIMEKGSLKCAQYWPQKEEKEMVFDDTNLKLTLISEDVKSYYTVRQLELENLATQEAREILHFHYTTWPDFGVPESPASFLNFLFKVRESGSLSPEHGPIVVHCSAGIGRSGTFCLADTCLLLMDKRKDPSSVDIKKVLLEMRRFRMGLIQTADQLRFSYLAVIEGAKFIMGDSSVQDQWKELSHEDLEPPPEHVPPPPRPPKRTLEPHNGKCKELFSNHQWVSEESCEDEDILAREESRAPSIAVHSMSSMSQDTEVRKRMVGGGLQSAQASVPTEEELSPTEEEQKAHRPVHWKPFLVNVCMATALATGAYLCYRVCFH
Measurement notes: Percent inhibition of Protein-tyrosine phosphatase 1 (PTP) assayed at 100 uM
Kindly state inhibition for each of the entries shown.
Write the value in % as a bare number.

## Input Notebook entry, Tyrosine-protein phosphatase non-receptor type 1 (Rattus norvegicus) (UniProt P20417) assay: inhibition of CCCCCNC(=O)C(Cc1ccc(OC(C(=O)O)C(=O)O)cc1)NC(=O)[C@H](CCC(=O)O)NC(=O)OC(C)(C)C (stereo partly drawn) = ?
## Output 83

## Input Further, for CCCCCNC(=O)C(Cc1ccc(OC(C(=O)O)C(=O)O)cc1)NC(=O)[C@H](CC(=O)O)NC(=O)OC(C)(C)C (stereo partly drawn) ?
## Output 90

## Input And then CCCCCNC(=O)C(Cc1ccc(OC(C(=O)O)C(=O)O)cc1)NC(=O)[C@H](COc1ccc(Cc2cc(Cl)ccc2Cl)cc1)NC(=O)CCC(=O)O (stereo partly drawn) , what is it?
## Output 98

## Input Quick one: CCCCCNC(=O)C(Cc1ccc(OC(C(=O)O)C(=O)O)cc1)NC(=O)CC1(CC(=O)O)CCCC1 (stereo not drawn)
## Output 72

## Input Please do the same for CCCCCNC(=O)C(Cc1ccc(OC(C(=O)O)C(=O)O)cc1)NC(=O)[C@H](Cc1ccc(OC)cc1)NC(=O)CCC(=O)O (stereo partly drawn) as well.
## Output 98

## Input // repeat for CCCCCNC(=O)[C@H](Cc1ccc(OC(C(=O)O)C(=O)O)cc1)NC(=O)[C@@H](Cc1ccc(C(=O)c2ccccc2)cc1)NC(=O)CCC(=O)O and report
## Output 54

## Input Request: O=C(O)CCC(=O)NC(Cc1ccc(OC(C(=O)O)C(=O)O)cc1)C(=O)NCC1CCCCC1 (stereo not drawn)
## Output 73

## Input What do you have for CCCCCNC(=O)C(Cc1ccc(OCC(=O)O)c(C(=O)O)c1)NC(=O)CCC(=O)O (stereo not drawn) ?
## Output 93

## Input Now try CCCCCNC(=O)C(Cc1ccc(OC(C(=O)O)C(=O)O)cc1)NC(=O)[C@H](C)NC(=O)OC(C)(C)C (stereo partly drawn) .
## Output 76

## Input Also O=C(O)CCC(=O)NC(Cc1ccc(OC(C(=O)O)C(=O)O)cc1)C(=O)NCc1ccc(C(F)(F)F)cc1 (stereo not drawn) ?
## Output 66

## Input Follow-up entry: CCCCCNC(=O)C(Cc1ccc(OCC(=O)O)c(C(=O)O)c1)NC(=O)[C@H](Cc1ccccc1)NC(=O)OC(C)(C)C (stereo partly drawn)
## Output 84

## Input Further, for CCCCCNC(=O)C(Cc1ccc(OC(C(=O)O)C(=O)O)c(F)c1)NC(=O)CCC(=O)O (stereo not drawn) ?
## Output 78

## Input How about this compound: CCCCCNC(=O)C(Cc1ccc(OC(C(=O)O)C(=O)O)cc1)NC(=O)[C@H](CC(=O)O)NC(=O)CCC(=O)O (stereo partly drawn)
## Output 96
